Sequence of the target: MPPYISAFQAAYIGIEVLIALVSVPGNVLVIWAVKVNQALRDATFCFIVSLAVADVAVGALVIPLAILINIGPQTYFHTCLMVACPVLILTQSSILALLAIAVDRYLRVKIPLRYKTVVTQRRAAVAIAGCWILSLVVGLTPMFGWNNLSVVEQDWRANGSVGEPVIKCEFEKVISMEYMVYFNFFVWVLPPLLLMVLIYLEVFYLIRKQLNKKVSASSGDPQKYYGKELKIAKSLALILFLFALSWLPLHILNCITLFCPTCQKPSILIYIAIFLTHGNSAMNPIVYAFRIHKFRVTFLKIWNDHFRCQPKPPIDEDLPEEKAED
Attribute: log10 of Ki
// units: nM (pre-log); metric: Ki; scale: log10

# count of solved cases: 4
Query: Provide measured log10 of Ki value, entry: OC[C@H]1OC(n2cnc3c(NC4CCCC4)nc(I)nc32)[C@H](O)[C@@H]1O (stereo not given in full)
Reply: 1.30

Query: Provide measured log10 of Ki value, entry: OC[C@H]1OC(n2cnc3c(NC4CCC4)nc(O)nc32)[C@H](O)[C@@H]1O (stereo not given in full)
Reply: 1.74

Query: Provide measured log10 of Ki value, entry: OC[C@H]1OC(n2cnc3c(NC4CCCCCC4)nc(O)nc32)[C@H](O)[C@@H]1O (stereo not given in full)
Reply: 1.85

Query: Provide measured log10 of Ki value, entry: OC[C@H]1OC(n2cnc3c(NC4CCCC4)nc(O)nc32)[C@H](O)[C@@H]1O (stereo not given in full)
Reply: 1.28

More entries:
Query: Provide measured log10 of Ki value, entry: OC[C@H]1OC(n2cnc3c(NC4CCC5CCCCC5C4)nc(O)nc32)[C@H](O)[C@@H]1O (stereo not given in full)
Reply: 4.48
